Tested on: DLD-1
Test: NCI tumour cell line growth inhibition, 48 h
The source made the active and inactive calls. No stated cut-off is given here; in the data, active = GI50 up to about 1.1 µM and inactive = higher.
Assay metric: GI50

Q: Please report the measured GI50 for O=C1C=CC2(CCCCCCC2=O)CC1 (stereo not drawn)
Result: > 100 µM (inactive)

Q: Report GI50 for NC1(CCCCCCCCCCC(=O)O)CNCCNCCNCCNC1
Result: 40.7 µM (inactive)

Q: Supply reported GI50 belonging to this compound: CC1=NOC(=O)/C1=C/c1cccc2ccccc12
Result: > 100 µM (inactive)

Q: Report measured GI50; entry is CN(CCO)/N=N/c1[nH]cnc1C(N)=O
Result: > 100 µM (inactive)

Q: Please report GI50 for the following compound: Oc1cccc2cccnc12 [OXYQUINOLINE]
Result: 1.47 µM (inactive)

Q: Please give measured GI50 of the following entry: CCCCCCCCCCCCSC(=S)c1c(C)[nH]n(-c2ccccc2)c1=O
Result: 2.3 µM (inactive)

Q: Hello, please tell me recorded GI50 for this one: O=c1c2cc(Br)ccc2[nH]c(=S)n1-c1ccccc1
Result: > 100 µM (inactive)

Q: Read the entry CCN(CC)CCC(=O)NC1c2ccccc2Oc2c(C)cccc21 (stereo not drawn) and write its reported GI50.
Result: > 100 µM (inactive)

* * *

Test system: IGROV-1
Experiment: NCI tumour cell line growth inhibition, 48 h
Calls of active or inactive are those of the source. Cut-off read from the data, not from the text of the source: active = GI50 up to about 1.1 µM and inactive = higher.
Assay metric: GI50

Q: Give the reported value of GI50 for this record: O=c1c2cc(Br)ccc2[nH]c(=S)n1-c1ccccc1
Result: > 100 µM (inactive)

Q: Respond only with GI50 recorded for Nn1c(CCCCCCCCc2nnc(COc3ccc4ccccc4c3O)n2N)nnc1COc1ccc2ccccc2c1O
Result: 4.92 µM (inactive)

Q: Return GI50 for the following compound: CCOC(=O)/C(=C\c1ccc(N(CCC#N)CCC#N)cc1C)NC(=O)/C=C/c1ccccc1
Result: > 100 µM (inactive)

Q: Look up and state reported GI50 for COC(=O)/C(C#N)=C1\NC(=O)c2ccccc21
Result: > 100 µM (inactive)

Q: Annotate the compound Cc1sc2nc3n(sc4nc5sc(C)c(C)c5c(=O)n43)c(=O)c2c1C with its measured GI50.
Result: > 100 µM (inactive)

Q: Answer with the recorded GI50 of Cc1nc2nnnn2c2c1C(=O)Nc1ccccc1N2 only.
Result: > 100 µM (inactive)

* * *

System: SNB-75
Experiment: NCI tumour cell line growth inhibition, 48 h
The source made the active and inactive calls. Cut-off read from the data, not from the text of the source: active = GI50 up to about 1.1 µM and inactive = higher.
Response enum: active, inactive

Q: Assay outcome for CN(C)CCCNc1ccc2c(=O)n(CCN(C)C)c(=O)n3c4ccccc4c(=O)c1c23 : what was it?
Result: active

Q: So what was the verdict on O=C(O)c1cc(/N=N/c2ccc([As](=O)(O)O)cc2)ccc1O in this test?
Result: inactive

Q: Which outcome was assigned to Cc1csc(NC23CC4CC(CC(C4)C2)C3)[n+]1C(P(=O)([O-])O)P(=O)(O)O (centres undefined) in this test?
Result: inactive

Q: Dear all, I need the recorded test outcome for COc1ccc2c(c1)C(=O)N1CCOC1C2C(=O)O (centres undefined) , thank you.
Result: inactive

* * *

Consider the following compounds; for each one, report its GI50.
Test system: OVCAR-4
Test: NCI tumour cell line growth inhibition, 48 h
Calls of active or inactive are those of the source. No stated cut-off is given here; in the data, active = GI50 up to about 1.1 µM and inactive = higher.

Q: Find the measured GI50 of O=C1CCCCCCC2=C1C(Sc1ccccc1)CC2 (configuration not stated) with OVCAR-4 as test system.
Result: 63.2 µM (inactive)

Q: Please look at Nn1c(S)nnc1C12CC3CC(CC(C3)C1)C2 and tell me its recorded GI50 on OVCAR-4.
Result: > 100 µM (inactive)

Q: Quote GI50 with test system OVCAR-4 for C[C@H](CCC(=O)O)[C@H]1CC[C@H]2[C@@H]3CC[C@@H]4C[C@H](O)CC[C@]4(C)[C@H]3C[C@H](O)[C@]12C
Result: 49.7 µM (inactive)

Q: Give OVCAR-4 GI50 for the following compound: Cc1ccc(/N=C2\N=C(N3CC(C)OC(C)C3)c3ccccc32)cc1 (configuration not stated)
Result: 18.1 µM (inactive)

Q: Jot down GI50 (OVCAR-4) of Cc1cc(C)c(-c2noc(-c3ccc(Cl)cc3)c2C2=NCCCN2)c(C)c1 .
Result: 97.1 µM (inactive)

Q: State measured GI50 of the compound Cc1cc(NC(=O)NC(=O)c2ccccc2NC(=O)C(C)N)ccc1Oc1ncc(Br)cn1 (configuration not stated) with OVCAR-4.
Result: 5.36 µM (inactive)

Q: # return GI50 of COc1ccc(-c2c(N)[n+]([O-])c3cc(C)c(C)cc3[n+]2[O-])cc1OC (system: OVCAR-4)
Result: > 100 µM (inactive)

* * *

System: SK-MEL-2
Test: NCI tumour cell line growth inhibition, 48 h
Activity calls are given as the source filed them. Rule as the data show it: active = GI50 up to about 1.1 µM and inactive = higher.
Bench note: report the call from 1.0 = active, 0.0 = inactive

Q: Given CC(O)c1cc2c(s1)C(=O)c1ccsc1C2=O (stereo not given) , state the outcome it received in this test.
Result: 1.0

Q: Which outcome was assigned to Oc1cc(-c2ccc(F)cc2)nc2ncc(Cl)cc12 in this test?
Result: 0.0

Q: Look up the recorded call for CC#CC#C/C(=C/C=CC(=O)OC)SC in this test.
Result: 0.0

Q: For this compound, state the assay outcome: CCOC(=O)C(=O)CC(=O)C(Br)C(Br)c1ccc(Cl)cc1 (stereo not given)
Result: 0.0

Q: Could you check what this test reported for Cc1cc(NC(=O)NC(=O)c2ccccc2NC(=O)C(C)N)ccc1Oc1ncc(Br)cn1 (stereo not given) ?
Result: 1.0

Q: Hi, do you know how Cc1ccc(NC(=O)C2C(=O)N(c3ccc(C)cc3)C(=O)/C2=N\NC(N)=S)cc1 (stereo not given) came out in this test?
Result: 0.0

Q: Recorded test outcome, item Fc1cccc(C2SCC3=Nc4ccccc4CN32)c1 (stereo not given)
Result: 0.0

Q: Please indicate how the test categorized COC(=O)/C=C\n1ncc(=O)[nH]c1=O .
Result: 0.0

Q: Call for entry Cc1ccc(C)c(NC(=O)CC/C(=N\NC(=O)c2c(O)ccc3ccccc23)C(C)C(=O)c2ccc(O)cc2)c1 (stereo not given) :
Result: 0.0

Q: Record request — test call for CCOC(=O)/C(=C\c1ccc(N(CCC#N)CCC#N)cc1C)NC(=O)/C=C/c1ccccc1
Result: 0.0

Q: Recorded test call requested for O=C(CC1C(=O)Nc2ccccc2S1(=O)=O)Nc1cc(Cl)ccc1Cl (stereo not given)
Result: 0.0

Q: GET /call?item= O=S(=O)(c1cnccc1N1CCN(CCO)CC1)N1CCCC1 returns the recorded outcome of this test.
Result: 0.0

Q: Name the outcome recorded for CN1C(=O)CC2(C)c3cc(O)cc(Br)c3N(C)C12 (stereo not given) in the assay.
Result: 0.0

Q: Recorded call for Cc1ccc(C2(N3CCCC3)OC(C)(C)c3cccc4cccc2c34)cc1 (stereo not given) ?
Result: 0.0

Q: GET /call?item= COc1cc2c(cc1OC)[C@H](C)N1CCc3cc(OC)c(OC)cc3[C@@H]1C2 returns the recorded outcome of this test.
Result: 0.0

* * *

Tested on: NCI-H522
Assay: NCI tumour cell line growth inhibition, 48 h
The source made the active and inactive calls. Rule as the data show it: active = GI50 up to about 1.1 µM and inactive = higher.
Assay metric: GI50

Q: State GI50 (NCI-H522) of COc1cc(C[P+](c2ccccc2)(c2ccccc2)c2ccccc2)cc(OC)c1OC .
Result: > 100 µM (inactive)

Q: Report value only: GI50, NCI-H522, Cn1c(=O)c2c(nc3n2CCC(=O)N3)n(C)c1=O
Result: > 100 µM (inactive)

Q: Name the recorded GI50 of O=C(NCCCC/N=c1/cccccc1NCCCCNC(=O)OCc1ccccc1)OCc1ccccc1 , assay system NCI-H522.
Result: 17.2 µM (inactive)

Q: Fill in GI50 for COc1cc2[nH]c(=O)[nH]c2c2c(C)c[nH]c12 tested with NCI-H522.
Result: > 100 µM (inactive)

* * *

System: Malme-3M
Assay: NCI tumour cell line growth inhibition, 48 h
Calls of active or inactive are those of the source. Cut-off read from the data, not from the text of the source: active = GI50 up to about 1.1 µM and inactive = higher. Where a SMILES comes first, the peptide text is derived from it. The star is where a group is joined. Boc = CC(C)(C)OC(=O)*; OBn = c1ccc(CO*)cc1
Assay metric: GI50

Q: Specify GI50 for COc1cc(Oc2nc3ccc(C(F)(F)F)cc3nc2-c2ccccc2)cc(OC)c1OC , system Malme-3M.
Result: 87.9 µM (inactive)

Q: # return GI50 of COC(=O)[C@@H](NC(=O)c1ccc(CNC(=O)/C(C)=C/c2ccccc2)cc1)C(C)C (system: Malme-3M)
Result: > 100 µM (inactive)

Q: Write down the reported GI50 (system: Malme-3M) of OCCN(/N=C\c1ccc2ccccc2c1)C1=NCCN1
Result: 15.6 µM (inactive)

Q: # return GI50 of Brc1cc(C2OCCCO2)ccc1OCc1ccccc1 (system: Malme-3M)
Result: 31.8 µM (inactive)

Q: Recall the reported GI50 of CCOC(=O)c1nc2ccccc2nc1Oc1ccc(C(=O)OC)cc1 on Malme-3M and write it down.
Result: > 100 µM (inactive)

Q: State recorded GI50 with Malme-3M, entry COc1ccc(/C=C(\NC(=O)c2ccccc2)c2nc3ccccc3[nH]2)cc1OC , no comment.
Result: > 100 µM (inactive)

Q: Please look at [O-][n+]1c(-c2ccccc2)oc2ccccc21 and tell me its recorded GI50 on Malme-3M.
Result: 13 µM (inactive)

Q: Quote GI50 with test system Malme-3M for CCOc1c(OC)cc(C2c3cc4c(c(OCC)c3CC3COC(=O)C32)OCO4)cc1OC (stereo not drawn)
Result: 11.1 µM (inactive)

Q: Report value: GI50, system: Malme-3M, molecule: CC(O)c1cc2c(s1)C(=O)c1c(C(C)O)csc1C2=O (stereo not drawn)
Result: 0.0329 µM (active)

Q: // fetch GI50; item: CC(C)(C)OC(=O)NC(Cc1ccccc1)C(=O)NC(Cc1ccccc1)C(=O)NCC(=O)OCc1ccccc1 (stereo not drawn) (Boc-Phe-Phe-Gly-OBn; configuration not given here) ; system: Malme-3M
Result: 44.5 µM (inactive)

Q: # return GI50 for Cc1ccc(-c2c(C#N)c(S)n(NS(=O)(=O)c3ccc(C)cc3)c(=O)c2C#N)cc1 , test system: Malme-3M
Result: 3.56 µM (inactive)

Q: GET GI50 | system: Malme-3M | item: Cc1ccc(NC(c2ccccc2)c2ccc3cccnc3c2O)cc1 (stereo not drawn)
Result: 3.05 µM (inactive)

Q: Look up and report GI50, with Malme-3M as system, for O=C1c2cccnc2C(=O)c2c1nc1ccccc1c2-c1cncc(-c2c3c(nc4ccccc24)C(=O)c2cccnc2C3=O)c1
Result: 0.28 µM (active)

Q: Report measured GI50 on Malme-3M; entry: N#CC(c1nc2ccccc2s1)c1nc(Cl)ncc1Br (stereo not drawn)
Result: 41.4 µM (inactive)

Q: Identify measured GI50 obtained with Malme-3M for CC(C)c1c(O)c(O)c2c(c1O)C(=O)C(O)=C1C(C)(C)CCC[C@@]12C .
Result: 3.88 µM (inactive)

Q: Report value: GI50, system: Malme-3M, molecule: O=C(/C=C/c1ccccc1)CCC1C(=O)c2ccccc2C1=O
Result: > 100 µM (inactive)

Q: Give GI50 for Cc1ccc(CC(Cc2ccccc2C)C(=O)O)c(C(=O)O)c1 (stereo not drawn) tested on Malme-3M.
Result: > 100 µM (inactive)

Q: Recall the reported GI50 of C/C(=N\Nc1nc2cc(Cl)ccc2s1)c1ccccn1 when tested on Malme-3M.
Result: 0.834 µM (active)
